- PROCEDURE_SUMMARY: in vitro
- TEST_PARAMETERS: human
MEASURED_ENDPOINT: IC50 at 48 h (µg/mL)
Give the value, in units of µg/mL, as a plain number.

Problem: Which value of IC50 at 48 h has been reported for O=c1cc(CCl)c2ccc(O)cc2o1 [Compound 1, 4-chloromethyl-7-hydroxycoumarin] in the records?
Solution: 93

----------
- TARGET_OR_SYSTEM: aromatase (ARO) (Homo sapiens)
- Sequence (P11511 1-503): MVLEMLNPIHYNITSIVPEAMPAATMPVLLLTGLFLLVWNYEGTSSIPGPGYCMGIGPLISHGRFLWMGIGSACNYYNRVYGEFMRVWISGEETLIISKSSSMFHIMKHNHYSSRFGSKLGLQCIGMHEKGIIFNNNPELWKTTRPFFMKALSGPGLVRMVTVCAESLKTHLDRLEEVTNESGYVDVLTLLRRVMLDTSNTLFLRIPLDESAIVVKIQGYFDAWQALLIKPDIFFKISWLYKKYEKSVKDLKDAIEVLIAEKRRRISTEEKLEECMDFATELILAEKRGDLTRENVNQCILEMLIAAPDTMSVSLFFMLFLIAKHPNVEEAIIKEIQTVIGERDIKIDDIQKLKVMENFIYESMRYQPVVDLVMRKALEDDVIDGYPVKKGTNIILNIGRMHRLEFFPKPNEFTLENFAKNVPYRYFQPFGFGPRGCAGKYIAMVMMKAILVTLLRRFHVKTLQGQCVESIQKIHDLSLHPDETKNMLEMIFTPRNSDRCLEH
- PROCEDURE_SUMMARY: In vitro aromatase (ARO) enzyme inhibition assay (ELISA)
- TEST_PARAMETERS: Aromatase IC50, lab report 14-12-2020
MEASURED_ENDPOINT: pIC50
# reply with the number alone; pIC50 is -log10 of concentration in mol/L

Problem: Which value of pIC50 has been reported for O=C(OCc1cc(=O)oc2cc(O)ccc12)c1ccccc1 [Compound 2] in the records?
Solution: 6.67
